Values from ChEMBL document CHEMBL1124612

- Target Or System: GABA-A receptor; anion channel (Rattus norvegicus) (UniProt O09028+P15431+P18506+P18508+P19969+P20236+P23574+P23576+P28471+P28473+P30191+P62813+P63079+P63138+Q91ZM7+Q9ES14)
- Method Notes: Displacement of [3H]flunitrazepam from GABA-A benzodiazepine receptor of rat cerebral cortex at 500 nM
- Type: tissue-based
Below, each of the compounds is paired with its reported inhibition value.
Quick note: unit goes after the number.

Entry under review: C=CCNC(=O)c1cnc2c(cnn2CCC#CC)c1NC(=O)CC . Reported inhibition?
28%

What do you have for CCOC(=O)c1c(C)nc2c(cnn2CCC(C)(C)C)c1N ?
38%

What do you have for CCCCCn1ncc2c(N)c(C(=O)OCC)c(C(C)C)nc21 ?
54%

What do you have for CCCCCn1ncc2c(N)c(C(=O)OCC(C)C)c(C)nc21 ?
55%

----------
- Target Or System: GABA-A receptor; anion channel
- Method Notes: Inhibition of [3H]flunitrazepam binding to GABA-A benzodiazepine receptor of rat cortex
Endpoint: pIC50
API: returns pIC50 as number; meaning -log10 of concentration in mol/L.

Entry under review: C=CCNC(=O)c1cnc2c(cnn2CCC#CC)c1N . Reported pIC50?
7.09

----------
- Target Or System: GABA-A receptor; anion channel
- Method Notes: Inhibition of [3H]flunitrazepam binding to GABA-A benzodiazepine receptor of rat cerebral cortex
- Assay type: tissue-based
Endpoint: IC50 (nM)
Entry rule: numbers only, all in nM.

Entry under review: C#CCCCn1ncc2c(N)c(C(=O)NCC=C)cnc21 . Reported IC50?
9.3

----------
- Tested on: GABA-A receptor; anion channel
- Method Notes: Inhibition of [3H]flunitrazepam binding to GABA-A benzodiazepine receptor of rat cerebral cortex at 500 nM
- Type: tissue-based
Endpoint: IC50

The examples below pair each entry with its known result.
Entry under review: C=CCNC(=O)c1cnc2c(cnn2CCCCC)c1O . Reported IC50?
Not Active

What do you have for CCCCCn1ncc2c(N)c(C(=O)N(CC)CC)cnc21 ?
Not Active

What do you have for C=CCNC(=O)c1cnc2c(cnn2CCCCC)c1NCCCC ?
Not Active

What do you have for CC#CCCn1ncc2c(N)c(C(=O)N(C)CCC)cnc21 ?
Not Active

What do you have for CCCCCn1ncc2c(O)c(C(=O)OCC)c(C)nc21 ?
Not Active

What do you have for C=CCN(CC=C)C(=O)c1cnc2c(cnn2CCCCC)c1N ?
Not Active

What do you have for C#CCN(C)C(=O)c1cnc2c(cnn2CCCCC)c1N ?
Not Active

What do you have for CCCCCn1ncc2c(N)c(C(=O)N(C)CCC)cnc21 ?
Not Active

Others:
Entry under review: C#CCN(CC#C)C(=O)c1cnc2c(cnn2CCCCC)c1N . Reported IC50?
Not Active

What do you have for CCCCCn1ncc2c(N)c(C(=O)N3CCCC3)cnc21 ?
Not Active

What do you have for CCCCCn1ncc2c(N)c(C(=O)N(C)C)cnc21 ?
Not Active

----------
Below, each of the compounds is paired with its reported IC50 value.
- Target Or System: GABA-A receptor; anion channel
- Method Notes: Inhibition of [3H]flunitrazepam binding to GABA-A benzodiazepine receptor of rat cerebral cortex
- Format: tissue-based
Entry rule: numbers only, all in nM.

The examples below pair each entry with its known result.
Entry under review: C#CCCn1ncc2c(N)c(C(=O)OCC=C)c(C)nc21 . Reported IC50?
160

What do you have for C=CCOC(=O)c1c(C)nc2c(cnn2CCC#CC)c1N ?
79

What do you have for CC#CCNC(=O)c1cnc2c(cnn2CCCCC)c1N ?
84

What do you have for CCCCCn1ncc2c(N)c(C(=O)OCC3CC3)c(C)nc21 ?
131

What do you have for C=CCNC(=O)c1c[n+]([O-])c2c(cnn2CCCCC)c1N ?
53

What do you have for C#CCCCn1ncc2c(N)c(C(=O)OCC=C)c(C)nc21 ?
5.5

What do you have for C#CCNC(=O)c1cnc2c(cnn2CCCCC)c1N ?
60

What do you have for CCCCCn1ncc2c(N)c(C(=O)NC)cnc21 ?
354

Next up:
Entry under review: CCCCCn1ncc2c(N)c(C(=O)NC(C)C)cnc21 . Reported IC50?
414
